Origin of the recorded values: ChEMBL document CHEMBL1152547

experiment: Cytotoxicity against human NCI60 cells assessed as cell growth at 10 uM after 48 hrs by sulforhodamine B assay; type: functional; conditions: NCI60, 48 h, read-out: Activity
reported_endpoint: growth at 10 µM (%)

cpd_smiles=Cc1cc(Cl)ccc1Nc1nc(C(F)(F)F)ccc1C(=O)N/N=C/c1cccc(O)c1 reported_value=27.1
cpd_smiles=O=C(N/N=C/c1ccc(Cl)cc1)c1ccc(C(F)(F)F)nc1Nc1cccc(C(F)(F)F)c1 reported_value=9.64
cpd_smiles=Cc1cc(Cl)ccc1Nc1nc(C(F)(F)F)ccc1C(=O)N/N=C/c1ccccc1Cl reported_value=14.8
cpd_smiles=O=C(N/N=C/c1c(Cl)cccc1Cl)c1cccnc1Nc1cccc(C(F)(F)F)c1 reported_value=37.8
cpd_smiles=Cc1ccc(Cl)cc1Nc1nc(C(F)(F)F)ccc1C(=O)N/N=C/c1ccccc1Cl reported_value=36.2

###

test: Cytotoxicity against human NCI60 cells assessed as cell growth at 10 uM after 48 hrs by sulforhodamine B assay; format: functional; conditions: NCI60, 48 h, read-out: Activity
reported_endpoint: growth at 10 µM (%)

cpd_smiles=Cc1ccc(Cl)cc1Nc1nc(C(F)(F)F)ccc1C(=O)N/N=C/c1ccc([N+](=O)[O-])cc1 reported_endpoint="growth at 10 µM" reported_value=85.7
cpd_smiles=COc1ccc(Cl)cc1Nc1nc(C(F)(F)F)ccc1C(=O)N/N=C/c1ccc(Cl)cc1Cl reported_endpoint="growth at 10 µM" reported_value=72.1
cpd_smiles=Cc1cc(Cl)ccc1Nc1nc(C(F)(F)F)ccc1C(=O)NCC(=O)N/N=C/c1c(Cl)cccc1Cl reported_endpoint="growth at 10 µM" reported_value=68.1
cpd_smiles=Cc1cc(Cl)ccc1Nc1nc(C(F)(F)F)ccc1C(=O)N/N=C/c1cccnc1 reported_endpoint="growth at 10 µM" reported_value=47.2
cpd_smiles=COc1ccc(Cl)cc1Nc1nc(C(F)(F)F)ccc1C(=O)N/N=C/c1cccc(O)c1 reported_endpoint="growth at 10 µM" reported_value=59.1

###

assay: Cytotoxicity against human NCI60 cells assessed as cell growth at 10 uM after 48 hrs by sulforhodamine B assay; format: functional; details: NCI60, 48 h, read-out: Activity
reported_endpoint: growth at 10 µM (%)

cpd_smiles=Cc1cc(Cl)ccc1Nc1nc(C(F)(F)F)ccc1C(=O)N/N=C/c1ccc(N(C)C)cc1 reported_endpoint="growth at 10 µM" measurement_units=% reported_value=23.2
cpd_smiles=COc1cc(/C=N/NC(=O)c2ccc(C(F)(F)F)nc2Nc2cccc(C(F)(F)F)c2)ccc1O reported_endpoint="growth at 10 µM" measurement_units=% reported_value=50.1
cpd_smiles=Cc1ccc(Cl)cc1Nc1nc(C(F)(F)F)ccc1C(=O)N/N=C/c1cccc(O)c1 reported_endpoint="growth at 10 µM" measurement_units=% reported_value=90.1
cpd_smiles=O=C(N/N=C/c1ccc(F)cc1)c1ccc(C(F)(F)F)nc1Nc1cccc(C(F)(F)F)c1 reported_endpoint="growth at 10 µM" measurement_units=% reported_value=7.73
cpd_smiles=O=C(N/N=C/c1cccnc1)c1ccc(C(F)(F)F)nc1Nc1cccc(C(F)(F)F)c1 reported_endpoint="growth at 10 µM" measurement_units=% reported_value=70.3
cpd_smiles=Cc1cc(Cl)ccc1Nc1nc(C(F)(F)F)ccc1C(=O)N/N=C/c1ccc(Cl)cc1Cl reported_endpoint="growth at 10 µM" measurement_units=% reported_value=60.1
cpd_smiles=Cc1ccc(Cl)cc1Nc1nc(C(F)(F)F)ccc1C(=O)N/N=C/c1c(Cl)cccc1Cl reported_endpoint="growth at 10 µM" measurement_units=% reported_value=-3.82
cpd_smiles=COc1cc(/C=N/NC(=O)c2ccc(C(F)(F)F)nc2Nc2cc(Cl)ccc2C)cc(OC)c1OC reported_endpoint="growth at 10 µM" measurement_units=% reported_value=94
cpd_smiles=Cc1ccc(Cl)cc1Nc1nc(C(F)(F)F)ccc1C(=O)N/N=C/c1ccc(F)cc1 reported_endpoint="growth at 10 µM" measurement_units=% reported_value=33

###

test: Toxicity in ip dosed athymic mouse assessed as body weight loss administered as single dose measured after 2 weeks; assay type: organism-based; conditions: in vivo
reported_endpoint: MTD at 336 h (mg/kg)

cpd_smiles=Cc1cc(Cl)ccc1Nc1nc(C(F)(F)F)ccc1C(=O)N/N=C/c1c(Cl)cccc1Cl reported_endpoint="MTD at 336 h" reported_value=400

###

assay: Cytotoxicity against human NCI60 cells assessed as cell growth at 10 uM after 48 hrs by sulforhodamine B assay; type: functional; conditions: NCI60, 48 h, read-out: Activity
I'd appreciate it if you marked entries satisfied when growth at 10 µM is lower than 60% and not satisfied when it is not.

cpd_smiles=COc1cc(/C=N/NC(=O)c2ccc(C(F)(F)F)nc2Nc2cc(Cl)ccc2OC)ccc1O assigned_class=satisfied
cpd_smiles=O=C(N/N=C/c1c(Cl)cccc1Cl)c1ccc(C(F)(F)F)nc1Nc1cccc(C(F)(F)F)c1 assigned_class=satisfied
cpd_smiles=Cc1ccc(Cl)cc1Nc1nc(C(F)(F)F)ccc1C(=O)N/N=C/c1ccc(Cl)cc1 assigned_class=satisfied
cpd_smiles=O=C(N/N=C/c1ccc([N+](=O)[O-])cc1)c1ccc(C(F)(F)F)nc1Nc1cccc(C(F)(F)F)c1 assigned_class="not satisfied"
cpd_smiles=COc1cc(/C=N/NC(=O)c2ccc(C(F)(F)F)nc2Nc2ccc(Cl)cc2C)ccc1O assigned_class=satisfied
cpd_smiles=COc1ccc(Cl)cc1Nc1nc(C(F)(F)F)ccc1C(=O)N/N=C/c1ccc([N+](=O)[O-])cc1 assigned_class=satisfied
cpd_smiles=COc1ccc(Cl)cc1Nc1nc(C(F)(F)F)ccc1C(=O)N/N=C/c1ccncc1 assigned_class="not satisfied"
cpd_smiles=O=C(N/N=C/c1cccc(O)c1)c1ccc(C(F)(F)F)nc1Nc1cccc(C(F)(F)F)c1 assigned_class="not satisfied"
cpd_smiles=COc1ccc(Cl)cc1Nc1nc(C(F)(F)F)ccc1C(=O)N/N=C/c1ccc(N(C)C)cc1 assigned_class="not satisfied"

###

test: Cytotoxicity against human NCI60 cells assessed as cell growth at 10 uM after 48 hrs by sulforhodamine B assay; type: functional; conditions: NCI60, 48 h, read-out: Activity
I'd appreciate it if you marked entries TRUE when growth at 10 µM is lower than 50% and FALSE when it is not.

cpd_smiles=COc1cc(/C=N/NC(=O)c2ccc(C(F)(F)F)nc2Nc2cccc(C(F)(F)F)c2)cc(OC)c1OC assigned_class=TRUE
cpd_smiles=Cc1cc(Cl)ccc1Nc1nc(C(F)(F)F)ccc1C(=O)N/N=C/c1ccc(F)cc1 assigned_class=TRUE
cpd_smiles=COc1ccc(Cl)cc1Nc1nc(C(F)(F)F)ccc1C(=O)N/N=C/c1cccnc1 assigned_class=TRUE
cpd_smiles=O=C(N/N=C/c1c(Cl)cccc1Cl)c1ccccc1Nc1cccc(C(F)(F)F)c1 assigned_class=FALSE
cpd_smiles=Cc1cc(Cl)ccc1Nc1nc(C(F)(F)F)ccc1C(=O)N/N=C/c1ccncc1 assigned_class=FALSE
cpd_smiles=COc1cc(/C=N/NC(=O)c2ccc(C(F)(F)F)nc2Nc2ccc(Cl)cc2C)cc(OC)c1OC assigned_class=TRUE
cpd_smiles=O=C(N/N=C/c1ccc(Cl)cc1Cl)c1ccc(C(F)(F)F)nc1Nc1cccc(C(F)(F)F)c1 assigned_class=FALSE
cpd_smiles=COc1cc(/C=N/NC(=O)c2ccc(C(F)(F)F)nc2Nc2cc(Cl)ccc2C)ccc1O assigned_class=TRUE
cpd_smiles=Cc1cc(Cl)ccc1Nc1nc(C(F)(F)F)ccc1C(=O)N/N=C/c1ccc(Cl)cc1 assigned_class=TRUE
cpd_smiles=Cc1ccc(Cl)cc1Nc1nc(C(F)(F)F)ccc1C(=O)N/N=C/c1cccnc1 assigned_class=TRUE
cpd_smiles=Cc1ccc(Cl)cc1Nc1nc(C(F)(F)F)ccc1C(=O)N/N=C/c1ccc(Cl)cc1Cl assigned_class=FALSE
cpd_smiles=Cc1ccc(Cl)cc1Nc1nc(C(F)(F)F)ccc1C(=O)N/N=C/c1ccc(N(C)C)cc1 assigned_class=FALSE
cpd_smiles=COc1ccc(Cl)cc1Nc1nc(C(F)(F)F)ccc1C(=O)N/N=C/c1ccc(F)cc1 assigned_class=TRUE
cpd_smiles=O=C(N/N=C/c1ccccc1Cl)c1ccc(C(F)(F)F)nc1Nc1cccc(C(F)(F)F)c1 assigned_class=TRUE
cpd_smiles=Cc1cc(Cl)ccc1Nc1nc(C(F)(F)F)ccc1C(=O)N/N=C/c1c(Cl)cccc1Cl assigned_class=TRUE
cpd_smiles=Cc1ccc(Cl)cc1Nc1nc(C(F)(F)F)ccc1C(=O)N/N=C/c1ccncc1 assigned_class=FALSE
cpd_smiles=COc1ccc(Cl)cc1Nc1nc(C(F)(F)F)ccc1C(=O)N/N=C/c1cc(OC)c(OC)c(OC)c1 assigned_class=TRUE
cpd_smiles=CN(C)c1ccc(/C=N/NC(=O)c2ccc(C(F)(F)F)nc2Nc2cccc(C(F)(F)F)c2)cc1 assigned_class=FALSE
cpd_smiles=Cc1cc(Cl)ccc1Nc1nc(C(F)(F)F)ccc1C(=O)N/N=C/c1ccc([N+](=O)[O-])cc1 assigned_class=TRUE
cpd_smiles=Nc1nc(C(F)(F)F)ccc1C(=O)N/N=C/c1c(Cl)cccc1Cl assigned_class=FALSE
cpd_smiles=O=C(N/N=C/c1ccncc1)c1ccc(C(F)(F)F)nc1Nc1cccc(C(F)(F)F)c1 assigned_class=TRUE
